# Target Under Test: fMet-Leu-Phe receptor (Homo sapiens)
# Procedure Summary: FPR antagonists blocking calcium flux, SAR follow-up, U937 cells, fMLFF stimulus, Fluo4, flow cytometry (AID 863)
# Condition Label: FPR-expressing U937 cells, fMLFF-induced Fluo4 calcium flux, 80 s, concentration not given here
Active and inactive are the calls of the source. The rule behind the calls is not given here.
Parameter call: string, one of active, inactive

Input line: Fill in: this test's call for Cc1nc2c(-c3ccc(Cl)cc3)c(C(F)(F)F)[nH]n2c(=O)c1Cc1ccccc1 is ___
Output line: active

Input line: Also, COc1ccc(-c2c(C(F)(F)F)oc3cc(OC(=O)c4cccnc4)ccc3c2=O)cc1OC please.
Output line: inactive

Input line: Try the compound COc1ccc(OC)c(C2/C(=C(\O)c3ccccc3)C(=O)C(=O)N2c2cccnc2)c1 (centres undefined)
Output line: inactive

Input line: Also, COCCN1C(=O)C(=O)/C(=C(/O)c2ccccc2)C1c1cc(OC)ccc1OC (centres undefined) please.
Output line: active

Input line: # iterate: O=C(C1=C(O)C(=O)N(CCc2ccccc2)C1c1ccc(Cl)cc1)c1cccs1 (centres undefined)
Output line: inactive

Input line: Also COc1ccc(-c2c(C(F)(F)F)oc3cc(OC(=O)c4ccco4)ccc3c2=O)cc1OC ?
Output line: active

Input line: Similarly, CCCCCCN1C(=O)C(=O)/C(=C(\O)c2ccccc2)C1c1ccc(O)c(OC)c1 (centres undefined) ?
Output line: inactive

Input line: For O=C(Oc1ccc2c(=O)c(-c3ccccc3Cl)c(C(F)(F)F)oc2c1)c1cccs1 then?
Output line: active

Input line: Here is the next compound: COc1ccc(C2/C(=C(\O)c3ccccc3)C(=O)C(=O)N2CCCn2ccnc2)c(OC)c1 (centres undefined)
Output line: active

Input line: What do you have for COc1ccc(C2C(C(=O)c3cccs3)=C(O)C(=O)N2CCCn2ccnc2)cc1 (centres undefined) ?
Output line: active

Input line: What do you have for COc1ccc(C2C(C(=O)c3cccs3)=C(O)C(=O)N2CCN2CCOCC2)c(OC)c1 (centres undefined) ?
Output line: inactive

Input line: Would you mind doing CCc1cc2c(=O)c(-c3nc4ccccc4n3C)c(C)oc2cc1OC(C)=O as well?
Output line: active

Input line: Subsequent entry: COc1ccc(C2C(C(=O)c3ccco3)=C(O)C(=O)N2CCN2CCOCC2)c(OC)c1 (centres undefined)
Output line: inactive

Input line: Okay, and COc1ccccc1-c1c(C(F)(F)F)oc2cc(OC(=O)c3ccco3)ccc2c1=O ?
Output line: active
